Target: CXCR1 (Homo sapiens, UniProt P25024)
Construct: β-galactosidase enzyme-complementation fragment (PathHunter system)
Sequence (P25024 1-350): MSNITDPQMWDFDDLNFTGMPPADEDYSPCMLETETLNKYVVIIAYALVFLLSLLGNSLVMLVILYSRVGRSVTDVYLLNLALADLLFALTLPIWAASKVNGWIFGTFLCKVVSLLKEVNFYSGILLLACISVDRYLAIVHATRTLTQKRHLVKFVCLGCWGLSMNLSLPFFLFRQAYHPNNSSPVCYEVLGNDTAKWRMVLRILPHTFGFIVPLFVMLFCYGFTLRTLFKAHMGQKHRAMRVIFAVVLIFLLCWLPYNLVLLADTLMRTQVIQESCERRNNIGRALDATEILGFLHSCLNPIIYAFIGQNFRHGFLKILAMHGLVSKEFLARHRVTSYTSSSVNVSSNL
Assay: β-arrestin2 recruitment assay, antagonism of CXCL8 stimulation (U2OS hCXCR1 b-arrestin)
Settings: U2OS hCXCR1 b-arrestin cells, CXCL8-stimulated
OBSERVATION TYPE: IC50 (nM)

- CC[C@@H](Nc1c(Nc2cccc(C(=O)N(C)C)c2O)c(=O)c1=O)c1ccccc1: 148

* * *

biological target: CXCR2 (Homo sapiens); assay: β-arrestin2 recruitment assay, antagonism of CXCL8 stimulation (PathHunter HEK293 hCXCR2 b-arrestin); conditions: PathHunter HEK293 hCXCR2 b-arrestin cells, CXCL8-stimulated
Sequence (P25025 whole entry): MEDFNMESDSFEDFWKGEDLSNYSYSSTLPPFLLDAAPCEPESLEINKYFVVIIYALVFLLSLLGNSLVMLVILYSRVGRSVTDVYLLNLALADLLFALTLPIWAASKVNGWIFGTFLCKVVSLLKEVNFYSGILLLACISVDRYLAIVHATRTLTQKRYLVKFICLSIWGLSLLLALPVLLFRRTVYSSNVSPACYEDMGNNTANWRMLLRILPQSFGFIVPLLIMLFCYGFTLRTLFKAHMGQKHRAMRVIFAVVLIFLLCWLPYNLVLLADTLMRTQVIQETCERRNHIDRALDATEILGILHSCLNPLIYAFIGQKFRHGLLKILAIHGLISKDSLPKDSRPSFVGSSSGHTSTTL
OBSERVATION TYPE: IC50

• CC[C@@H](Nc1c(Nc2cccc(C(=O)N(C)C)c2O)c(=O)c1=O)c1ccccc1 = 7 nM
